System: UACC-257 melanoma
ASSAY PROCEDURE: NCI tumour cell line growth inhibition, 48 h; in the data active = GI50 below about 0.43 µM; inactive = the rest
Classes used: TRUE = active, FALSE = inactive

[
  {
    "MOLECULE": "O=C(CC(Cl)=C(Cl)Cl)c1cccc(Cl)c1Cl",
    "TEST SYSTEM": "UACC-257 melanoma",
    "CLASS ASSIGNMENT": "FALSE"
  },
  {
    "MOLECULE": "CN(CC(=O)N(Cc1ccc(C2CCCCC2)cc1)c1ccc(C(=O)O)cc1)S(=O)(=O)c1c(F)c(F)c(F)c(F)c1F",
    "TEST SYSTEM": "UACC-257 melanoma",
    "CLASS ASSIGNMENT": "FALSE"
  },
  {
    "MOLECULE": "N=c1c2c(=N)n3c(nc2nc2n1-c1ccccc1Sc1ccccc1-2)sc1cc(Cl)ccc13",
    "TEST SYSTEM": "UACC-257 melanoma",
    "CLASS ASSIGNMENT": "FALSE"
  },
  {
    "MOLECULE": "COc1cc2c3c(n(C)c(=O)c2cc1OC)-c1ccc(C#N)cc1C3=O",
    "TEST SYSTEM": "UACC-257 melanoma",
    "CLASS ASSIGNMENT": "FALSE"
  },
  {
    "MOLECULE": "CC[C@H](C)[C@H](NC(=O)[C@H]1CCCCN1C)C(=O)N(C)[C@H](C[C@@H](OC(C)=O)c1nc(C(=O)N[C@@H](Cc2ccccc2)C[C@H](C)C(=O)O)cs1)C(C)C",
    "TEST SYSTEM": "UACC-257 melanoma",
    "CLASS ASSIGNMENT": "FALSE"
  },
  {
    "MOLECULE": "CN(Cc1cnc2nc(N)nc(N)c2n1)c1ccc(C(=O)NC(CCC(=O)O)C(=O)O)cc1Br (stereo not given)",
    "TEST SYSTEM": "UACC-257 melanoma",
    "CLASS ASSIGNMENT": "TRUE"
  },
  {
    "MOLECULE": "COc1cc2c(=O)[nH]c3cc([N+](=O)[O-])ccc3c2cc1[N+](=O)[O-]",
    "TEST SYSTEM": "UACC-257 melanoma",
    "CLASS ASSIGNMENT": "FALSE"
  },
  {
    "MOLECULE": "COc1cc2cc(Oc3ccc(NC(=O)Nc4ccc(Cl)c(Cl)c4)cc3)c(C)nc2cc1OC",
    "TEST SYSTEM": "UACC-257 melanoma",
    "CLASS ASSIGNMENT": "FALSE"
  },
  {
    "MOLECULE": "O=C1NC(=NCCCc2ccccc2)S/C1=C\\c1ccc2ncccc2c1",
    "TEST SYSTEM": "UACC-257 melanoma",
    "CLASS ASSIGNMENT": "FALSE"
  },
  {
    "MOLECULE": "CC(=O)[O][Hg][c]1c(C)c(C)cc(C)c1C",
    "TEST SYSTEM": "UACC-257 melanoma",
    "CLASS ASSIGNMENT": "FALSE"
  }
]
